# credit: patent US11932673

# TARGET_OF_ASSAY: trypsin
# ASSAY_NOTES: monoclonal phage ELISA
VALUE_KIND: ELISA signal
Form rule: numeric answer, no unit written next to it.

BINDER	ELISA signal
C09 (KnotBody with EET 5-3 framing) (scFv, V domains shown) VH: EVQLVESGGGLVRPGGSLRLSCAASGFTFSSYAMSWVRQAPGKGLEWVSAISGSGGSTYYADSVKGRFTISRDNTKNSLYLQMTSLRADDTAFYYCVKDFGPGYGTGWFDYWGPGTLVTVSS VL: SEAPRQRVTITCGGKRCGPNGFCGSGSDGGVCPRILMRCKQDSDCLAGCTSNWYQQKPGQAPVLVVQDDSVRPSGIPERFSGSNSGNTATLTISRVEAGDGADYYCQVWDISSDLGVFGGGTKLTVLG	9820

Please examine the following record next.
Fill blank: measured ELISA signal of the binder E09 (KnotBody with EET 5-3 framing) (scFv, V domains shown) VH: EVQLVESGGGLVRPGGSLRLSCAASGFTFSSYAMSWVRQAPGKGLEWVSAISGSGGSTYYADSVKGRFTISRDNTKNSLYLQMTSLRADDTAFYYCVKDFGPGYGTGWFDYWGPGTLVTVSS VL: AVNWYQQLPGKAPKLLIYAAGGCGPNGFCGSGSDGGVCPRILMRCKQDSDCLAGCGTQSGIPERFSGSKSGTSASLAISGLRSEDEADYYCAAWDDSLRAYVFGTGTQLTVLG is ____.
70300
